Data provenance: patent US20100144025A1

Biological target: HLA-A24 molecule (the product of HLA-A*2402 gene) (human)
quantity.measured: -log Kd

{"binder": "YMPSVIEKM (modifications not checked) [SEQ ID NO 15]", "quantity.measured": "-log Kd", "reported.result": "7.17 -log Kd"}
{"binder": "HWPKSHTLW (modifications not checked) [SEQ ID NO 7]", "quantity.measured": "-log Kd", "reported.result": "8.66 -log Kd"}
{"binder": "AYNHALSEL (modifications not checked) [SEQ ID NO 23]", "quantity.measured": "-log Kd", "reported.result": "7.68 -log Kd"}
{"binder": "PFPQSNAPI (modifications not checked) [SEQ ID NO 5]", "quantity.measured": "-log Kd", "reported.result": "8.22 -log Kd"}
{"binder": "GFLNEDHWF (modifications not checked) [SEQ ID NO 20]", "quantity.measured": "-log Kd", "reported.result": "6.76 -log Kd"}
{"binder": "AWLVHRQWF (modifications not checked) [SEQ ID NO 10]", "quantity.measured": "-log Kd", "reported.result": "8.39 -log Kd"}
{"binder": "KLMKITAEW (modifications not checked) [SEQ ID NO 16]", "quantity.measured": "-log Kd", "reported.result": "7.21 -log Kd"}
{"binder": "TLYAVATTF (modifications not checked) [SEQ ID NO 11]", "quantity.measured": "-log Kd", "reported.result": "7.58 -log Kd"}
{"binder": "GLNPTAIFL (modifications not checked) [SEQ ID NO 8]", "quantity.measured": "-log Kd", "reported.result": "6.39 -log Kd"}
